pIC50: −log10 of the molar value.
Reported pIC50 for target or system Aromatase (Homo sapiens), by entry.

{"Molecule": "Nc1ccc(C2CC(=O)NC2=O)cc1 (stereo not given)", "pIC50": 4.70}
{"Molecule": "CN1C(=O)CC(c2ccc(N)cc2)C1=O (stereo not given)", "pIC50": 4.78}
{"Molecule": "CN1C(=O)CC(C)(c2ccc(N)cc2)C1=O (stereo not given)", "pIC50": 4.81}
{"Molecule": "CCC1(c2ccc(N)cc2)CC(=O)NC1=O (stereo not given)", "pIC50": 4.87}
{"Molecule": "CC1(c2ccc(N)cc2)CC(=O)NC1=O (stereo not given)", "pIC50": 4.90}

This collection of values is drawn from ChEMBL document CHEMBL1123156.
